Test: RP-TLC lipophilicity, silica gel C18, methanol-water
Assay type: physicochemical
Details: RP-TLC silica gel C18, C0 = −RM^0/b
Method: The ready-to-use TLC glass plates covered by octadecyl(C18)- and octyl(C8)-modified TLC silica layers were purchased from Merck (Darmstadt, Germany). […] Before analysis, the chromatographic chamber (Twin Trough Chambers from CAMAG Philadelphia, USA) was saturated for 20 min. […] The retention parameter, RM, was calculated for each compound according to the Bate-Smith and Westall formula: (7) RM=log(1/RF−1) and listed in Table S2. […]
readout.name: C 0

// worked examples, C 0 included
compound	C 0
CCn1cc(C(=O)O)c(=O)c2cc(F)c(N3CC[N+]4(CC3)CN3C(=N4)C(C(=O)O)=Cc4ccccc43)nc21.[Cl-]	1.17
C[C@@H]1CN(c2c(F)c(N)c3c(=O)c(C(=O)O)cn(C4CC4)c3c2F)C[C@H](C)N1 [Compound 20, reference compound]	0.99
O=C(O)c1cn(C2CC2)c2cc(N3CCNCC3)c(F)cc2c1=O [Compound 22, ciprofloxacin, reference compound]	1.30
COc1c(N2CC3CCC[N+]4(CN5C(=N4)C(C(=O)O)=Cc4ccccc45)C3C2)c(F)cc2c(=O)c(C(=O)O)cn(C3CC3)c12.[Cl-] (stereo not shown)	0.84
CCn1cc(C(=O)O)c(=O)c2cnc(N3CC[N+]4(CC3)CN3C(=N4)C(C(=O)O)=Cc4ccccc43)nc21.[Cl-]	1.23

1. COc1c(N2CC[N+]3(CN4C(=N3)C(C(=O)O)=Cc3ccccc34)C(C)C2)c(F)cc2c(=O)c(C(=O)O)cn(C3CC3)c12.[Cl-] (stereo not shown)
2. CCn1cc(C(=O)O)c(=O)c2cc(F)c(N3CC[N+]4(CC3)CN3C(=N4)C(C(=O)O)=Cc4ccccc43)cc21.[Cl-]
Req: Out of 1 and 2 , name the one with the higher C 0. Field: selected label. Fill in the label of the entry you choose.
Resp: 2

----------
Experiment: MEKC lipophilicity (SDS micelles, pH 7.4)
Type: physicochemical
Details: 50 mM SDS, HEPES/TRIS buffer pH 7.4, 25 °C
readout.name: logk

// worked examples, logk included
compound	logk
C[C@@H]1CN(c2c(F)c(N)c3c(=O)c(C(=O)O)cn(C4CC4)c3c2F)C[C@H](C)N1 [Compound 20, reference compound]	0.116
CC1=CC(C)=C(C(=O)O)C2=N[N+]3(CCN(c4cc5c(cc4F)c(=O)c(C(=O)O)cn5C4CC4)CC3)CN12.[Cl-] [Compound 4]	−0.321

1. CCn1cc(C(=O)O)c(=O)c2cc(F)c(N3CC[N+]4(CC3)CN3C(C)=CC(C)=C(C(=O)O)C3=N4)cc21.[Cl-] [Compound 12]
2. CCn1cc(C(=O)O)c(=O)c2cc(F)c(N3CC[N+]4(CC3)CN3C(=N4)C(C(=O)O)=Cc4ccccc43)cc21.[Cl-] [Compound 1]
Req: Out of 1 and 2 , name the one with the higher logk. Field: selected label. Fill in the label of the entry you choose.
Resp: 2
(2: −0.104, 1: −0.272)

1. COc1c(N2CC[N+]3(CN4C(=N3)C(C(=O)O)=Cc3ccccc34)C(C)C2)c(F)cc2c(=O)c(C(=O)O)cn(C3CC3)c12.[Cl-] (stereo not drawn) [Compound 2]
2. COc1c(N2CC3CCC[N+]4(CN5C(=N4)C(C(=O)O)=Cc4ccccc45)C3C2)c(F)cc2c(=O)c(C(=O)O)cn(C3CC3)c12.[Cl-] (stereo not drawn) [Compound 15]
Req: Dear colleague, could you let me know whether 1 or 2 has the lower recorded logk? Thanks. Field: selected label. Fill in the label of the entry you choose.
Resp: 2
(2: −0.250, 1: −0.125)

----------
Experiment: RP-TLC lipophilicity, silica gel C8, methanol-water
Format: physicochemical
Conditions: RP-TLC silica gel C8, first principal component of RM values, contains 83.57% of information
readout.name: PC1

1. CCn1cc(C(=O)O)c(=O)c2cc(F)c(N3CCNC(C)C3)c(F)c21 (stereo not drawn) [Compound 17, reference compound]
2. COc1c(N2CC[N+]3(CN4C(C)=CC(C)=C(C(=O)O)C4=N3)C(C)C2)c(F)cc2c(=O)c(C(=O)O)cn(C3CC3)c12.[Cl-] (stereo not drawn) [Compound 13]
3. CCn1cc(C(=O)O)c(=O)c2cc(F)c(N3CC[N+]4(CC3)CN3C(=N4)C(C(=O)O)=Cc4ccccc43)cc21.[Cl-] [Compound 1]
Req: Give the descending PC1 ranking for the 3 compounds listed above. Give the order by naming the labels one after another as requested.
Resp: 2, 3, 1
(2: −0.64, 3: −2.23, 1: −4.09)

----------
Test: RP-TLC lipophilicity, silica gel C18, methanol-water
Assay type: physicochemical
Details: RP-TLC silica gel C18, first principal component of RM values, contains 86.92% of information
readout.name: PC1

// worked examples, PC1 included
molecule	PC1
CC1=CC(C)=C(C(=O)O)C2=N[N+]3(CCN(c4cc5c(cc4F)c(=O)c(C(=O)O)cn5C4CC4)CC3)CN12.[Cl-]	2.36
COc1c(N2CC[N+]3(CN4C(C)=CC(C)=C(C(=O)O)C4=N3)C(C)C2)c(F)cc2c(=O)c(C(=O)O)cn(C3CC3)c12.[Cl-] (stereo not drawn)	1.74
CCn1cc(C(=O)O)c(=O)c2cc(F)c(N3CC[N+]4(CC3)CN3C(=N4)C(C(=O)O)=Cc4ccccc43)cc21.[Cl-]	0.72
COc1c(N2CC[N+]3(CN4C(=N3)C(C(=O)O)=Cc3ccccc34)C(C)C2)c(F)cc2c(=O)c(C(=O)O)cn(C3CC3)c12.[Cl-] (stereo not drawn)	0.81

1. CCn1cc(C(=O)O)c(=O)c2cc(F)c(N3CC[N+]4(CN5C(C)=CC(C)=C(C(=O)O)C5=N4)C(C)C3)c(F)c21.[Cl-] (stereo not drawn)
2. COc1c(N2CC3CCC[N+]4(CN5C(=N4)C(C(=O)O)=Cc4ccccc45)C3C2)c(F)cc2c(=O)c(C(=O)O)cn(C3CC3)c12.[Cl-] (stereo not drawn)
Req: Out of 1 and 2 , name the one with the higher PC1. Field: selected label. Fill in the label of the entry you choose.
Resp: 1
(1: 1.75, 2: −1.12)

----------
Experiment: RP-TLC lipophilicity, silica gel C8, methanol-water
Assay type: physicochemical
Conditions: RP-TLC silica gel C8, mean value of RM
readout.name: mRM

// worked examples, mRM included
molecule	measured
CCn1cc(C(=O)O)c(=O)c2cc(F)c(N3CC[N+]4(CN5C(C)=CC(C)=C(C(=O)O)C5=N4)C(C)C3)c(F)c21.[Cl-] (stereo not shown)	0.79
COc1c(N2CC3CCC[N+]4(CN5C(=N4)C(C(=O)O)=Cc4ccccc45)C3C2)c(F)cc2c(=O)c(C(=O)O)cn(C3CC3)c12.[Cl-] (stereo not shown)	1.19

A. CCn1cc(C(=O)O)c(=O)c2cc(F)c(N3CC[N+]4(CC3)CN3C(C)=CC(C)=C(C(=O)O)C3=N4)nc21.[Cl-]
B. C[C@@H]1CN(c2c(F)c(N)c3c(=O)c(C(=O)O)cn(C4CC4)c3c2F)C[C@H](C)N1 [Compound 20, reference compound]
Req: Out of A and B , name the one with the higher mRM. Field: selected label. Fill in the label of the entry you choose.
Resp: B

1. CCn1cc(C(=O)O)c(=O)c2cc(F)c(N3CC[N+]4(CC3)CN3C(=N4)C(C(=O)O)=Cc4ccccc43)cc21.[Cl-]
2. CCn1cc(C(=O)O)c(=O)c2cnc(N3CC[N+]4(CC3)CN3C(C)=CC(C)=C(C(=O)O)C3=N4)nc21.[Cl-]
Req: Out of 1 and 2 , name the one with the higher mRM. Field: selected label. Fill in the label of the entry you choose.
Resp: 1

----------
Assay: RP-TLC lipophilicity, silica gel C8, methanol-water
Assay type: physicochemical
Conditions: RP-TLC silica gel C8, methanol-water 30 to 70% (v/v), intercept of Soczewiński–Wachtmeister equation
readout.name: R M ^0

1. CC1=CC(C)=C(C(=O)O)C2=N[N+]3(CCN(c4cc5c(cc4F)c(=O)c(C(=O)O)cn5C4CC4)CC3)CN12.[Cl-]
2. COc1c(N2CC3CCC[N+]4(CN5C(=N4)C(C(=O)O)=Cc4ccccc45)C3C2)c(F)cc2c(=O)c(C(=O)O)cn(C3CC3)c12.[Cl-] (stereo not drawn)
Req: Dear colleague, could you let me know whether 1 or 2 has the lower recorded R M ^0? Thanks. Field: selected label. Fill in the label of the entry you choose.
Resp: 1
(1: 1.79, 2: 2.63)

----------
Assay: RP-TLC lipophilicity, silica gel C18, methanol-water
Format: physicochemical
Conditions: RP-TLC silica gel C18, C0 = −RM^0/b
readout.name: C 0

compound	C 0
CC1=CC(C)=C(C(=O)O)C2=N[N+]3(CCN(c4cc5c(cc4F)c(=O)c(C(=O)O)cn5C4CC4)CC3)CN12.[Cl-] [Compound 4]	0.94
CCn1cc(C(=O)O)c(=O)c2cc(F)c(N3CCNCC3)nc21 [Compound 23, enoxacin, reference compound]	1.37
CCn1cc(C(=O)O)c(=O)c2cc(F)c(N3CC[N+]4(CN5C(C)=CC(C)=C(C(=O)O)C5=N4)C(C)C3)c(F)c21.[Cl-] (stereo not drawn) [Compound 9]	0.98

Provenance of the data: paper PMC6862250
